- System: MRCKB;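 also: KINOMEscan kinase panel screen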
- Construct: gene CDC42BPB
- measurement.setup: concentration: 1 μM,replicates: in singlicate; n = 1
# note: exactly 1% is not below, so it is Not met; use Met for %Inh strictly under it

compound: Cc1cc(C(=O)Nc2ccc(Oc3ccc4nc(NC(=O)C5CC5)cn4n3)cc2)nn1-c1ccccc1
label.class: Met

compound: CCN(CC)CCOc1ccc(Nc2ncc3cc(-c4c(Cl)cccc4Cl)c(=O)n(C)c3n2)cc1
label.class: Not met

compound: CC(C)Nc1cc(-c2ccc3c(N)n[nH]c3c2)nc(N)n1
label.class: Met

compound: O=C(NCCNc1ccnc(NCc2ccc(F)cc2)n1)c1cc2ccccc2s1
label.class: Not met

compound: C[C@H]1Oc2cc(cnc2N)-c2c(nn(C)c2C#N)CN(C)C(=O)c2ccc(F)cc21
label.class: Not met

compound: CN(C)CCOc1ccc(-c2cc(-c3c[nH]nc3-c3ccccn3)ccn2)cc1
label.class: Met

In the following, a different compound is considered.
Task: Dear colleague, could you confirm whether %Inh of Cl.Cl.Nc1nc(-c2ccc3c(N)n[nH]c3c2)cc(N2CCCC(NC(=O)c3ccccc3)C2)n1 (centres unmarked) falls below 1%? Thanks.
Result: Met
